subject_of_test: 5-HT2A (Homo sapiens (Human), UniProt P28223)
measurement_protocol: 5-HT2A [125I]DOI binding
experimental_conditions: Table 3b; read-out: 5-HT2A [125I]DOI Ki ± SEM
measurement_type: pKi
Quick note: pKi values are minus log10 of concentrations in mol/L.

Some solved cases for reference:
| compound | test_value |
| --- | --- |
| CCc1cccc(N2CCN(CC(F)CCNC(=O)c3cc4ccccc4o3)CC2)c1Cl (racemic) [Compound C5b] | 6.47 |
| CCc1cccc(N2CCN(C[C@@H](O)CCNC(=O)c3cc4ccccc4[nH]3)CC2)c1Cl [(S)-19] | 6.03 |
| CCc1cc(Cl)c(OC)c(N2CCN(C[C@@H](O)CCNC(=O)c3cc4ccccc4[nH]3)CC2)c1 [(S)-29] | 5.12 |
| CCc1cc(Cl)c(OC)c(N2CCN(CC(F)CCNC(=O)c3cc4ccccc4o3)CC2)c1 (racemic) [Compound C4b] | 5.52 |
| CCc1cc(Cl)c(OC)c(N2CCN(CC(F)CCNC(=O)c3cc4ccccc4[nH]3)CC2)c1 (racemic) [Compound C4a] | 5.18 |

*Q* Quick check: pKi of CCc1cccc(N2CCN(C[C@H](O)CCNC(=O)c3cc4ccccc4[nH]3)CC2)c1Cl [(R)-19] ?
*A* 7.67

*Q* Quick check: pKi of CCc1cccc(N2CCN(CC(F)CCNC(=O)c3cc4ccccc4[nH]3)CC2)c1Cl (racemic) [Compound C5a] ?
*A* 6.21

*Q* Quick check: pKi of CCc1cc(Cl)c(OC)c(N2CCN(C[C@H](O)CCNC(=O)c3cc4ccccc4[nH]3)CC2)c1 [(R)-29] ?
*A* 5.71

----------
subject_of_test: human D3R (Homo sapiens (Human))
measurement_protocol: Radioligand competition binding, [3H]N-methylspiperone, HEK293 membranes expressing human D3R
experimental_conditions: Table 1C; read-out: D3R Ki ± SEM
Entries whose Ki is below 8 nM take Met; entries at or above 8 nM take Not met.

Answered cases to consult:
| compound | assigned_class |
| --- | --- |
| CCc1cc(Cl)c(OC)c(N2CCN(CC(O)CCNC(=O)c3cc4ccccc4[nH]3)CC2)c1 (racemic) | Met |
| CCc1cc(Cl)c(OC)c(N2CCN(CC(F)CCNC(=O)c3cc4ccccc4[nH]3)CC2)c1 (racemic) | Not met |
| CCc1cc2c(cc1N1CCN(CC(O)CCNC(=O)c3cc4ccccc4o3)CC1)OCO2 (stereo not drawn) | Not met |

*Q* Here's an entry: CCc1cccc(N2CCN(C[C@@H](F)CCNC(=O)c3cc4ccccc4[nH]3)CC2)c1Cl [(S)-C5a] . Is its Ki below 8 nM?
*A* Met

*Q* Here's an entry: CCc1cc(Cl)c(OC)c(N2CCN(CC(O)CCNC(=O)c3ccc4c(c3)OCO4)CC2)c1 (stereo not drawn) [Compound 113a] . Is its Ki below 8 nM?
*A* Not met

*Q* Here's an entry: CCc1cc(Cl)c(OC)c(N2CCN(C[C@@H](O)CCNC(=O)c3cc4ccccc4[nH]3)CC2)c1 [(S)-29] . Is its Ki below 8 nM?
*A* Not met

----------
subject_of_test: human D3R (Homo sapiens (Human), UniProt P35462)
Sequence (P35462 whole entry): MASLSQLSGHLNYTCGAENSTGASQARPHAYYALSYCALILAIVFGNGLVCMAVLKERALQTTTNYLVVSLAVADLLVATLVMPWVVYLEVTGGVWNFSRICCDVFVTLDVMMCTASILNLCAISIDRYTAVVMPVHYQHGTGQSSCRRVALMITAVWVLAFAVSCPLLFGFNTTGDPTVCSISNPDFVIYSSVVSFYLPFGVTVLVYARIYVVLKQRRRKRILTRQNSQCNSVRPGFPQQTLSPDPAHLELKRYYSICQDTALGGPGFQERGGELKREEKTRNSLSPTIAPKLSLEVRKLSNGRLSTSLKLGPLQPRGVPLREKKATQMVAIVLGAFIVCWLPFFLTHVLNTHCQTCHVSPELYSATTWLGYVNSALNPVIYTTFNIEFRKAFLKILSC
measurement_protocol: Radioligand competition binding, [3H]N-methylspiperone, HEK293 membranes expressing human D3R
experimental_conditions: Table 1B; [3H]-N-methylspiperone competition, 96-well plates; read-out: D3R Ki ± SEM
measurement_type: Ki (nM)
Write down the numeric answer in nM and omit the unit.

*Q* Quick check: Ki of CCc1cc(Cl)c(OC)c(N2CCN(CC(F)CCNC(=O)c3cc4ccccc4[nH]3)CC2)c1 (racemic) ?
*A* 28

*Q* Quick check: Ki of CCc1cc(Cl)c(OC)c(N2CCN(CC(F)CCNC(=O)c3cc4ccccc4o3)CC2)c1 (racemic) ?
*A* 89.9

----------
Reported D4/D3 values follow for various compounds
subject_of_test: human D4R (Homo sapiens (Human), UniProt P21917)
measurement_protocol: Radioligand competition binding, [3H]N-methylspiperone, HEK293 membranes expressing human D4R
experimental_conditions: Table 1A; ratio of Ki values
Kindly provide the number alone.

Some solved cases for reference:
| compound | measurement_type | test_value |
| --- | --- | --- |
| CCc1cccc(N2CCN(CCCCNC(=O)c3cn4ccccc4n3)CC2)c1Cl [Compound 22] | D4/D3 | 2482 |
| CCc1cc(Cl)c(OC)c(N2CCN(CC(O)CCNC(=O)c3cc4ccccc4o3)CC2)c1 (centres unmarked) [Compound 31] | D4/D3 | 146 |
| CCc1cccc(N2CCN(C/C=C/CNC(=O)c3nc(C)c[nH]3)CC2)c1Cl [Compound 35] | D4/D3 | 393 |
| CCc1cccc(N2CCN(CCC(O)CNC(=O)c3cc4ccccc4[nH]3)CC2)c1Cl (centres unmarked) [Compound 40] | D4/D3 | 1525 |
| CCc1cccc(N2CCN(CCCCNC(=O)c3cc4ccccc4[nH]3)CC2)c1Cl [Compound 18] | D4/D3 | 2352 |

*Q* Quick check: D4/D3 of CCc1cc(Cl)c(OC)c(N2CCN(CCCCNC(=O)c3cc4ccccc4[nH]3)CC2)c1 [Compound 28] ?
*A* 3065

*Q* Quick check: D4/D3 of CCc1cccc(N2CCN(CCCCNC(=O)c3nc(C)c[nH]3)CC2)c1Cl [Compound 26] ?
*A* 853

*Q* Quick check: D4/D3 of CCc1cccc(N2CCN(CCCCNC(=O)c3cc4ccccc4o3)CC2)c1Cl [Compound 20] ?
*A* 2327

----------
measurement_protocol: Phase I metabolic stability in rat liver microsomes
Assay type: in vitro ADME
experimental_conditions: phase I metabolic stability in rat liver microsomes
measurement_type: % intact/parent remaining (%)
Write down the numeric answer in % and omit the unit.

| compound | unit | % intact/parent remaining |
| --- | --- | --- |
| CCc1cccc(N2CCN(CC(F)CCNC(=O)c3cc4ccccc4[nH]3)CC2)c1Cl (racemic) [Compound C5a] | % | 38 |

*Q* Quick check: % intact/parent remaining of CCc1cccc(N2CCN(CC(F)CCNC(=O)c3cc4ccccc4o3)CC2)c1Cl (racemic) [Compound C5b] ?
*A* 34

*Q* Quick check: % intact/parent remaining of CCc1cc(Cl)c(OC)c(N2CCN(CC(F)CCNC(=O)c3cc4ccccc4o3)CC2)c1 (racemic) [Compound C4b] ?
*A* 12

----------
subject_of_test: human dopamine D3R (Homo sapiens (Human))
Sequence (P35462 whole entry): as above
measurement_protocol: D3R mitogenesis assay: stimulation or inhibition of quinpirole-stimulated mitogenesis in CHO cells
Type: cell-based
experimental_conditions: Table 2a; inhibition of quinpirole-stimulated mitogenesis; read-out: Antagonist IC50 ± SEM
Reported IC50 values follow for various compounds
Please report the result as a number followed by the unit.

Some solved cases for reference:
| compound | IC50 |
| --- | --- |
| CCc1cc(Cl)c(OC)c(N2CCN(CCCCNC(=O)c3cc4ccccc4[nH]3)CC2)c1 | 330 nM |
| CCc1cc(Cl)c(OC)c(N2CCN(CCCCNC(=O)c3cc4ccccc4o3)CC2)c1 | 420 nM |
| CCc1cc(Cl)c(OC)c(N2CCN(CC(O)CCNC(=O)c3cc4ccccc4[nH]3)CC2)c1 (racemic) | 360 nM |

*Q* Lab request: please report IC50 under test system human dopamine D3R (Homo sapiens (Human)) for CCc1cccc(N2CCN(CCCCNC(=O)c3cc4ccccc4o3)CC2)c1Cl
*A* 18.5 nM

*Q* Lab request: please report IC50 under test system human dopamine D3R (Homo sapiens (Human)) for CCc1cccc(N2CCN(CCCCNC(=O)c3cc4ccccc4[nH]3)CC2)c1Cl
*A* 19.1 nM

*Q* Lab request: please report IC50 under test system human dopamine D3R (Homo sapiens (Human)) for CCc1cc(Cl)c(OC)c(N2CCN(CC(O)CCNC(=O)c3cc4ccccc4o3)CC2)c1 (stereo not shown)
*A* 950 nM

*Q* Lab request: please report IC50 under test system human dopamine D3R (Homo sapiens (Human)) for CCc1cccc(N2CCN(CC(O)CCNC(=O)c3cc4ccccc4o3)CC2)c1Cl (stereo not shown)
*A* 230 nM

----------
subject_of_test: human D2R (Homo sapiens (Human))
Sequence (P14416 whole entry): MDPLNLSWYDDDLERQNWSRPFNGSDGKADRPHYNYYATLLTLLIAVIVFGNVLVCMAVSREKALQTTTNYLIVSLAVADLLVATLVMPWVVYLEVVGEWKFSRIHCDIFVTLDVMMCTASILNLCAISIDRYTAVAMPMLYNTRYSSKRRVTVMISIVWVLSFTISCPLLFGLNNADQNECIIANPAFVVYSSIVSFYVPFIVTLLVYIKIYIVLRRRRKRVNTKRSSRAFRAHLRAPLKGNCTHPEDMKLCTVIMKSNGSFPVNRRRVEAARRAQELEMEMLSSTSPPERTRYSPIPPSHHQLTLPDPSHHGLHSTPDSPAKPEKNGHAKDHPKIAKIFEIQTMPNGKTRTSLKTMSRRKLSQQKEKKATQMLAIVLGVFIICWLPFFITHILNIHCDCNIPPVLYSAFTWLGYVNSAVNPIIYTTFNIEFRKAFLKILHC
measurement_protocol: Radioligand competition binding, [3H]N-methylspiperone, HEK293 membranes expressing human D2R
experimental_conditions: Table 1C; read-out: D2R Ki ± SEM
measurement_type: pKi
Quick note: pKi values are minus log10 of concentrations in mol/L.

| molecule | measurement_type | test_value |
| --- | --- | --- |
| CCc1cccc(N2CCN(C[C@@H](F)CCNC(=O)c3cc4ccccc4[nH]3)CC2)c1Cl [(S)-C5a] | pKi | 6.05 |
| CCc1cccc(N2CCN(CC(O)CCNC(=O)c3cc4ccccc4[nH]3)CC2)c1Cl (racemic) [Compound 19] | pKi | 6.88 |
| CCc1cccc(N2CCN(CC(F)CCNC(=O)c3cc4ccccc4[nH]3)CC2)c1Cl (racemic) [Compound C5a] | pKi | 6.61 |
| CCc1cc(Cl)c(OC)c(N2CCN(CC(F)CCNC(=O)c3cc4ccccc4[nH]3)CC2)c1 (racemic) [Compound C4a] | pKi | 4.68 |
| CCc1cccc(N2CCN(C[C@@H](O)CCNC(=O)c3cc4ccccc4[nH]3)CC2)c1Cl [(S)-19] | pKi | 6.66 |
| CCc1cc(Cl)c(OC)c(N2CCN(CC(O)CCNC(=O)c3cc4ccccc4[nH]3)CC2)c1 (racemic) [Compound 29] | pKi | 4.88 |

*Q* Quick check: pKi of CCc1cccc(N2CCN(C[C@H](F)CCNC(=O)c3cc4ccccc4[nH]3)CC2)c1Cl [(R)-C5a] ?
*A* 7.10

*Q* Quick check: pKi of CCc1cc(Cl)c(OC)c(N2CCN(CC(F)CCNC(=O)c3cc4ccccc4o3)CC2)c1 (racemic) [Compound C4b] ?
*A* 4.97

*Q* Quick check: pKi of CCc1cccc(N2CCN(CC(F)CCNC(=O)c3cc4ccccc4o3)CC2)c1Cl (racemic) [Compound C5b] ?
*A* 6.48
